Origin of values: patent US9090600B2

Settings: pH 2.7
Marks after values point to notes of the source that are not given here.
Observed property: LogP

{"columns": ["Compound", "Result"],
 "data": [
  ["C#CCCC(C)OC(=O)Nc1cccc(CO/N=C(/c2ccccc2)c2noc(=O)n2CC)n1 (centres unmarked)", "4.04 [a]"],
  ["Cn1c(/C(=N\\OCc2cccc(N(C(=O)Oc3ccc(F)cc3)C(=O)Oc3ccc(F)cc3)n2)c2ccccc2)noc1=O", "4.2 [a]"],
  ["CCCCCCOC(=O)Nc1cccc(CO/N=C(/c2ccccc2)c2noc(=O)n2C)n1", "4.85 [a]"],
  ["CC(C)CCOC(=O)Nc1cccc(CO/N=C(/c2ccccc2)c2noc(=O)n2C)n1", "4.39 [a]"],
  ["Cn1c(/C(=N\\OCc2cccc(NC(=O)CCCCl)n2)c2ccccc2)noc1=O", "3.27 [a]"],
  ["COc1ccccc1CCC(=O)Nc1cccc(CO/N=C(/c2ccccc2)c2noc(=O)n2C)n1", "3.87 [a]"],
  ["C=CC(=O)OCCOC(=O)Nc1cccc(CO/N=C(/c2ccccc2)c2noc(=O)n2C)n1", "3.21 [a]"],
  ["COC(=O)C(C)(C)COC(=O)Nc1cccc(CON=C(c2ccccc2)c2noc(=O)n2C)n1", "3.65 [a]"],
  ["Cc1cccc(C(=NOCc2cccc(NC(=O)OCCc3ccccc3)n2)c2noc(=O)n2C)c1", "4.49 [a]"],
  ["Cn1c(/C(=N\\OCc2cccc(NC(=O)CCC3CCCCC3)n2)c2ccccc2)noc1=O", "4.73 [a]"],
  ["CCCCSC(=S)Nc1nc(CON=C(c2ccccc2)c2noc(=O)n2C)cs1", "4.81 [a]"],
  ["Cn1c(/C(=N\\OCc2cccc(NC/C=N/OCc3ccccc3)n2)c2ccccc2)noc1=O", "3.35 [a]"],
  ["Cn1c(/C(=N\\OCc2csc(NC(=O)c3cccc(I)c3)n2)c2ccccc2)noc1=O", "4.19 [a]"],
  ["CC(Cc1ccccc1)OC(=O)Nc1cccc(CO/N=C(/c2ccccc2)c2noc(=O)n2C)n1 (centres unmarked)", "4.49 [a]"],
  ["Cn1c(/C(=N\\OCc2cccc(NC(=O)OCCCCl)n2)c2ccccc2)noc1=O", "3.6 [a]"],
  ["Cn1c(/C(=N\\OCc2csc(NC(=O)COc3ccc(F)cc3)n2)c2ccccc2)noc1=O", "3.53 [a]"],
  ["CCC(C(=O)Nc1cccc(CO/N=C(/c2ccccc2)c2noc(=O)n2C)n1)c1ccccc1 (racemic)", "4.23 [a]"],
  ["Cn1c(/C(=N\\OCc2cccc(NC(=O)CCCCCl)n2)c2ccccc2)noc1=O", "3.44 [a]"],
  ["Cn1c(/C(=N\\OCc2cccc(NC(=O)OCCOCCCl)n2)c2ccccc2)noc1=O", "3.29 [a]"],
  ["Cn1c(/C(=N\\OCc2csc(NC(=O)Oc3ccccc3)n2)c2ccccc2)noc1=O", "3.48 [a]"]
]}
